- target: UniProtKB Q9BY41
- Sequence (Q9BY41 whole entry): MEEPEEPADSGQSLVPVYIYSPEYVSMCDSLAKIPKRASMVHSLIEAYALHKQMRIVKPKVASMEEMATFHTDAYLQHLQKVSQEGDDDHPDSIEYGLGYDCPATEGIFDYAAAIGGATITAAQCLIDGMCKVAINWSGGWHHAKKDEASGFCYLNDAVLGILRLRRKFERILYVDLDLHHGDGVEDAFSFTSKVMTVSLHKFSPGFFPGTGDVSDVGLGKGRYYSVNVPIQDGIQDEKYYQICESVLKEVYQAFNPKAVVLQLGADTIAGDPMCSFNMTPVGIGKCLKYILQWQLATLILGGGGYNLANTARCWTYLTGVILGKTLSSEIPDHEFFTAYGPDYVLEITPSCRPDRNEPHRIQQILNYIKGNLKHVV
- protocol summary: HDAC8 in vitro inhibition, dose response
- Assay type: biochemical
- experimental parameters: Table 2; read-out: HDAC 8 IC50
pIC50: −log10 of the molar value.
This section presents molecules with their documented pIC50 values.
reported metric: pIC50

{"columns": ["molecule", "reported metric", "numeric readout"],
 "data": [
  ["CCCCNNC(=O)c1ccc(-c2cc(C)cc(F)c2)cc1 [SR-4372]", "pIC50", 5.44],
  ["CCCCNNC(=O)c1ccc(N(C)C)cc1 [RLS2-131, N′-butyl-4-(dimethylamino)benzohydrazide]", "pIC50", 4.88],
  ["CCCCNNC(=O)c1ccc(-c2cccc(F)c2F)cc1 [SR-4370]", "pIC50", 5.64],
  ["CCCCNNC(=O)c1ccc(-c2ccccc2)cc1 [RLS3-43, N′-butylbiphenyl-4-carbohydrazide]", "pIC50", 5.61],
  ["CCCCNNC(=O)c1ccc(C(C)(C)C)cc1 [RLS2-211, 4-tert-butyl-N′-butylbenzohydrazide]", "pIC50", 7.35],
  ["CCCCNNC(=O)c1ccc(Br)cc1 [UF010, 4-bromo-N′-butylbenzohydrazide]", "pIC50", 5.82]
]}

###

Recorded IC50 by entry
- target: HDAC1 (Homo sapiens (Human), UniProt Q13547)
- Sequence (Q13547 whole entry): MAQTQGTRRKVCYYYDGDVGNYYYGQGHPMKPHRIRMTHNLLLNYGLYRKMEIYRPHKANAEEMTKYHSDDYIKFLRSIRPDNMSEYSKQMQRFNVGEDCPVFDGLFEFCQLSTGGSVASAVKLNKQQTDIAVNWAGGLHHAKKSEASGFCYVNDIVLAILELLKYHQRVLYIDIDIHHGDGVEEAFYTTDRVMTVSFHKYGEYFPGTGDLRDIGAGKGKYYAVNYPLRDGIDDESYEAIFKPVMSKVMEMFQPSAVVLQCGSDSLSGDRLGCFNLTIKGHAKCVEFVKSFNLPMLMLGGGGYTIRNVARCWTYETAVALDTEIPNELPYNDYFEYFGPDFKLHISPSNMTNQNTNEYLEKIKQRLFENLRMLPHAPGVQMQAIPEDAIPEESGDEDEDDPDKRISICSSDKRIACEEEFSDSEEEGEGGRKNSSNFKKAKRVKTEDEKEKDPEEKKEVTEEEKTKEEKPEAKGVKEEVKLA
- protocol summary: HDAC-1 inhibition potency, luminescence readout
- Type: biochemical
- experimental parameters: Table 6, luminescence readout

{"columns": ["compound", "target", "IC50 [nM]"],
 "data": [
  ["CCCCNNC(=O)c1ccc(-c2ccccc2)cc1 [SR-3558]", "HDAC1 (Homo sapiens (Human), UniProt Q13547)", 90],
  ["CCCCNNC(=O)c1ccc(Br)cc1 [UF010, 4-bromo-N′-butylbenzohydrazide]", "HDAC1 (Homo sapiens (Human), UniProt Q13547)", 460],
  ["CCCCNNC(=O)c1ccc(-c2cccc(F)c2F)cc1 [SR-4370]", "HDAC1 (Homo sapiens (Human), UniProt Q13547)", 130]
]}

###

- target: HDAC2 (Homo sapiens (Human), UniProt Q92769)
- Sequence (Q92769 whole entry): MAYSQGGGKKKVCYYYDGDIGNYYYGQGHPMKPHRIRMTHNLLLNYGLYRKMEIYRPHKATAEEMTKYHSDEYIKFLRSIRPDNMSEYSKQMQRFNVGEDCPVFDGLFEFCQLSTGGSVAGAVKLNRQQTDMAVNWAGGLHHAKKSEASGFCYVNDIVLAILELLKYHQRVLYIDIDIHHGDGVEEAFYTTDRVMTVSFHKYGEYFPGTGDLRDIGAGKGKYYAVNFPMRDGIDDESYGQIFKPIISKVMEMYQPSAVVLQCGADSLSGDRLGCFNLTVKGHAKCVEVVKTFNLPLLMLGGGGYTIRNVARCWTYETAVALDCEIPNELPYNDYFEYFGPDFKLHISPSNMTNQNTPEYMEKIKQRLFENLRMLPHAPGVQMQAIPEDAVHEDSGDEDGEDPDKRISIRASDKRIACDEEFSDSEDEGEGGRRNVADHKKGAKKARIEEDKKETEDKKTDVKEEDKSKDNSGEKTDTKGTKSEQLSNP
- protocol summary: HDAC2 in vitro inhibition, dose response
- Type: biochemical
- experimental parameters: Table 2; read-out: HDAC 2 IC50

{"columns": ["compound", "bound operator", "IC50, µM"],
 "data": [
  ["CCNNC(=O)c1ccc2ccccc2c1 [RLS2-240, N′-ethyl-2-naphthohydrazide]", ">", 50],
  ["O=C(NNCCC1CCCC1)c1ccc(Br)cc1 [RLS2-219]", "=", 7.65],
  ["CCCCNNC(=O)c1ccc(OC)c(OC)c1 [RLS3-20]", "=", 30.1],
  ["O=C(NNCC1CCCC1)c1ccc(Br)cc1 [RLS2-256]", "=", 28.4],
  ["CCCCNNC(=O)c1ccc(-c2ccccc2)cc1 [RLS3-43, N′-butylbiphenyl-4-carbohydrazide]", "=", 0.8],
  ["CCCCNNC(=O)c1ccccc1 [RLS2-125, N′-butylbenzohydrazide]", ">", 50],
  ["CCCCNNC(=O)c1cc2ccccc2cc1O [RLS2-210, N′-butyl-3-hydroxy-2-naphthohydrazide]", ">", 50],
  ["CCCCNNC(=O)c1ccc(-c2cncnc2)cc1 [SR-4369]", "=", 7.27],
  ["CCCCNNC(=O)c1ccc(OC)c(OC)c1 [RLS3-11, N′-butyl-3,4-dimethoxybenzohydrazide]", "=", 20.4],
  ["CCCCNNC(=O)c1ccc(OC(F)(F)F)cc1 [RLS2-124]", "=", 9.09]
]}

###

- target: HDAC1 (Homo sapiens (Human), UniProt Q13547)
- protocol summary: HDAC1 in vitro inhibition, dose response
- Type: biochemical
- experimental parameters: Table 2; read-out: HDAC 1 IC50
The entries below are paired with their reported IC50.

{"columns": ["compound", "IC50"],
 "data": [
  ["CN(C)c1ccc(C(=O)NNCC2CCCC2)cc1", "1.76 µM"],
  ["O=C(NNCCc1ccccc1)c1ccc(Br)cc1 [RLS2-138, 4-bromo-N′-phenethylbenzohydrazide]", "> 50 µM"],
  ["NNC(=O)c1ccc2ccccc2c1 [RLS2-243, 2-naphthohydrazide]", "> 50 µM"],
  ["O=C(NNCC1CCCC1)c1ccc2ccccc2c1", "> 50 µM"],
  ["CCCCNNC(=O)c1ccc([N+](=O)[O-])cc1 [RLS2-128, N′-butyl-4-nitrobenzohydrazide]", "21.3 µM"],
  ["O=C(NNCCC1CCCC1)c1ccc(Br)cc1", "7.4 µM"],
  ["CCCCNNC(=O)c1ccc(-c2cc(C(=O)OCC)ccc2F)cc1", "1.3 µM"]
]}

###

Recorded pIC50 values for a group of compounds are listed next.
- Test system: HepG2 cells
- protocol summary: cells
- experimental parameters: Homo sapiens, HepG2, read-out: IC50 HDAC2 shRNA
pIC50: −log10 of the molar value.

{"columns": ["compound", "pIC50"],
 "data": [
  ["CCCCNNC(=O)c1ccc(N(C)C)cc1 [RLS2-131, N′-butyl-4-(dimethylamino)benzohydrazide]", 5.70],
  ["CCCCNNC(=O)c1ccc(Br)cc1 [UF010, 4-bromo-N′-butylbenzohydrazide]", 4.96]
]}

###

- target: HDAC2 (Homo sapiens (Human))
- protocol summary: HDAC2 in vitro inhibition, dose response
- Format: biochemical
- experimental parameters: Table 1; read-out: Inhibitory Potency (IC50) HDAC 2
pIC50: −log10 of the molar value.
reported metric: pIC50

{"columns": ["compound", "reported metric", "numeric readout"],
 "data": [
  ["CCCCNNC(=O)c1ccc(Br)cc1 [UF010, 4-bromo-N′-butylbenzohydrazide]", "pIC50", 7.00]
]}

###

- target: HDAC3 (Homo sapiens (Human), UniProt O15379)
- Sequence (O15379 whole entry): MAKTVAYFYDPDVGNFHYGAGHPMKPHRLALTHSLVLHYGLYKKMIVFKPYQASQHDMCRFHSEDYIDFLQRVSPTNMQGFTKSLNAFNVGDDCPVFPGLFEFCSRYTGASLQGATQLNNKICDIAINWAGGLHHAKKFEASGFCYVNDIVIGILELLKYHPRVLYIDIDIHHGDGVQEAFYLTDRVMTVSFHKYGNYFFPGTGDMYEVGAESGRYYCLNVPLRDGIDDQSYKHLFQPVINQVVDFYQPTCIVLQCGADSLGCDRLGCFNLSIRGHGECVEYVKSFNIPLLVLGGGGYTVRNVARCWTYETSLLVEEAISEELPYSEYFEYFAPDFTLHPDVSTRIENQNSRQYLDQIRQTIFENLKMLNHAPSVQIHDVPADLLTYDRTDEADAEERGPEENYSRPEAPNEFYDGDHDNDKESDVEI
- Sequence (Q9Y618 395-489 partner): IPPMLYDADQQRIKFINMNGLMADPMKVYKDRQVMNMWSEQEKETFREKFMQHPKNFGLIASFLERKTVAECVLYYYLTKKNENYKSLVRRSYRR
- protocol summary: HDAC3 in vitro inhibition, dose response
- Type: biochemical
- experimental parameters: Table 2; read-out: HDAC 3 IC50
pIC50: −log10 of the molar value.
The reader will find reported pIC50 values listed item by item below.
reported metric: pIC50

{"columns": ["molecule", "reported metric", "bound operator", "numeric readout"],
 "data": [
  ["CCCCNNC(=O)c1ccncc1 [RLS2-290, N′-butylisonicotinohydrazide]", "pIC50", "=", 5.85],
  ["CN(C)c1ccc(C(=O)NNCC2CCCC2)cc1", "pIC50", "=", 5.78],
  ["Cc1ccc(C(=O)NNC(C)(C)C)cc1 [RLS2-187, N′-tert-butyl-4-methylbenzohydrazide]", "pIC50", "<", 4.30],
  ["CCCCNNC(=O)c1ccc(OC)cc1 [RLS2-126, N′-butyl-4-methoxybenzohydrazide]", "pIC50", "=", 6.37],
  ["CCCCNNC(=O)c1ccc(OC)c(OC)c1 [RLS3-11, N′-butyl-3,4-dimethoxybenzohydrazide]", "pIC50", "=", 5.40],
  ["CCCCNNC(=O)c1ccc(CN=[N+]=[N-])cc1 [RLS2-312, 4-(azidomethyl)-N′-butylbenzohydrazide]", "pIC50", "=", 6.82],
  ["CCCCNNC(=O)c1cccnc1 [RLS2-289, N′-butylnicotinohydrazide]", "pIC50", "=", 5.36],
  ["CCCCNNC(=O)c1cc2ccccc2cc1O [RLS2-210, N′-butyl-3-hydroxy-2-naphthohydrazide]", "pIC50", "<", 4.30],
  ["CCCCNNC(=O)c1ccc([N+](=O)[O-])cc1 [RLS2-128, N′-butyl-4-nitrobenzohydrazide]", "pIC50", "=", 5.61],
  ["O=C(NNCCCC1CCCC1)c1ccc2ccccc2c1", "pIC50", "<", 4.30],
  ["CCCCNNC(=O)c1ccc(OC)c(OC)c1 [RLS3-20]", "pIC50", "=", 4.86],
  ["CCCCNNC(=O)c1ccc(Br)cc1 [UF010, 4-bromo-N′-butylbenzohydrazide]", "pIC50", "=", 7.22],
  ["NNC(=O)c1ccc2ccccc2c1 [RLS2-243, 2-naphthohydrazide]", "pIC50", "<", 4.30],
  ["CCCCNNC(=O)c1ccc(Cl)cc1 [RLS2-133, N′-butyl-4-chlorobenzohydrazide]", "pIC50", "=", 6.02],
  ["CCCCNNC(=O)c1ccc(OCC)c(OCC)c1 [RLS3-14, N′-butyl-3,4-diethoxybenzohydrazide]", "pIC50", "=", 6.10],
  ["O=C(NNCCC1CCCC1)c1ccc(Br)cc1", "pIC50", "=", 5.97],
  ["CCNNC(=O)c1ccc2ccccc2c1 [RLS2-240, N′-ethyl-2-naphthohydrazide]", "pIC50", "<", 4.30],
  ["O=C(NNCCc1ccccc1)c1ccc(Br)cc1 [RLS2-138, 4-bromo-N′-phenethylbenzohydrazide]", "pIC50", "<", 4.30]
]}

###

- target: HDAC2 (Homo sapiens (Human), UniProt Q92769)
- protocol summary: HDAC2 in vitro inhibition, dose response
- Assay type: biochemical
- experimental parameters: Table 2; read-out: HDAC 2 IC50
pIC50: −log10 of the molar value.
reported metric: pIC50

{"columns": ["molecule", "bound operator", "numeric readout"],
 "data": [
  ["CCCCNNC(=O)c1ccc(CN=[N+]=[N-])cc1 [RLS2-312, 4-(azidomethyl)-N′-butylbenzohydrazide]", "=", 6.28],
  ["O=C(NNCCCC1CCCC1)c1ccc2ccccc2c1 [RLS2-249]", "<", 4.30],
  ["O=C(NNCCc1ccccc1)c1ccc(Br)cc1 [RLS2-138, 4-bromo-N′-phenethylbenzohydrazide]", "<", 4.30],
  ["CCCCNNC(=O)c1cccc(I)c1 [RLS3-5, N′-butyl-3-iodobenzohydrazide]", "=", 4.33]
]}
